Examples of compounds with documented mortality at 200 ppm follow.
System: Tetranychus urticae
Assay: Tetranychus urticae (two-spotted spider mite), bean leaf disc test
Assay type: in vivo
Settings: foliar, 192 h, application rate 200 ppm, 8 days after infestation, read-out: control (mortality on mixed population, mobile stages)

Use these answered entries as a reference point.
>>> print(df.to_string())
                                   compound  endpoint_result
0  Cn1nc(OC(F)=C(F)C(F)(F)F)c(C(F)(F)F)c1-n1cc(-c2ccc(Cl)c(C(=O)NC3(C#N)CC3)c2)cn1            ≥ 80%
1  Cn1nc(OCC(F)(F)OC(F)(F)C(F)(F)OC(F)(F)F)c(C(F)(F)F)c1-n1cc(-c2ccc(Cl)c(C(=O)NC3CC3)c2)cn1            ≥ 80%
2  Cn1nc(OCC(F)(F)F)c(C(F)(F)F)c1-n1cc(-c2ccc(Cl)c(C(=O)NC3CC3)c2)cn1            ≥ 80%
3  CCNC(=O)c1cc(-c2cnn(-c3c(C(F)(F)F)c(OC(F)(F)C(F)C(F)(F)F)nn3C)c2)ccc1Cl (centres unmarked)            ≥ 80%
4  Cn1nc(O/C(=C\F)C(F)(F)F)c(C(F)(F)F)c1-n1cc(-c2ccc(Cl)c(C(=O)NC3(C#N)CC3)c2)cn1            ≥ 80%

mortality at 200 ppm reading for `Cn1nc(OC(F)(F)C(F)F)c(C(F)(F)F)c1-n1cc(-c2ccc(Cl)c(C(=O)NC3(C#N)CC3)c2)cn1` : ≥ 80%

The recorded mortality at 200 ppm for entry `Cn1nc(OCC(F)(F)C(F)F)c(C(F)(F)F)c1-n1cc(-c2ccc(Cl)c(C(=O)NC3CC3)c2)cn1` equals ≥ 80%

Lab note: CN(C(=O)c1cc(-c2cnn(-c3c(C(F)(F)F)c(OC(F)(F)C(F)C(F)(F)F)nn3C)c2)ccc1Cl)C1(C#N)CC1 (centres unmarked) gave mortality at 200 ppm of ≥ 80%

For record Cn1nc(OC(F)(F)C(F)C(F)(F)F)c(C(F)(F)F)c1-n1cc(-c2cccc(C(=O)NC3CC3)c2F)cn1 (centres unmarked) the listed mortality at 200 ppm is ≥ 80%

Looking up `Cn1nc(OCC(F)(F)C(F)(F)F)c(C(F)(F)F)c1-n1cc(-c2ccc(Cl)c(C(=O)NC3CC3)c2)cn1` , I see its mortality at 200 ppm listed as ≥ 80%

Value of measured mortality at 200 ppm for the entry `Cn1nc(OCCOC(F)(F)F)c(C(F)(F)F)c1-n1cc(-c2ccc(Cl)c(C(=O)NC3CC3)c2)cn1` : ≥ 80%

compound `Cn1nc(OCC(F)F)c(C(F)(F)F)c1-n1cc(-c2ccc(Cl)c(C(=O)NC3(C#N)CC3)c2)cn1` , mortality at 200 ppm observed: ≥ 80%

For this compound ( Cn1nc(OC(F)(F)C(F)Cl)c(C(F)(F)F)c1-n1cc(-c2ccc(Cl)c(C(=O)NC3(C#N)CC3)c2)cn1 (centres unmarked) ), measured mortality at 200 ppm is ≥ 80%

Entry Cn1nc(OC(F)(F)C(F)C(F)(F)F)c(C(F)(F)F)c1-n1cc(-c2cnc(Cl)c(C(=O)NC3(C#N)CC3)c2)cn1 (centres unmarked) ; mortality at 200 ppm = ≥ 80%
